Assay explanation: C. albicans growth with fluconazole, confirmation, fluorescence, retest (AID 2467)
Assay type: functional, cell-based
The source made the active and inactive calls. Cut-off read from the data, not from the text of the source: actives have a measured EC50 and inactives only a lower limit.
Quantity measured: EC50

- Compound: "CC(=O)c1sc(NC(=O)CCS(=O)(=O)c2ccccc2)nc1C"
  Endpoint value: "0.691 µM (active)"
- Compound: "CCCCCc1ccc(OCCCC[n+]2ccc(C)cc2)c(CCCCC)c1"
  Endpoint value: "0.516 µM (active)"
- Compound: "[O-][N+]1=c2ccc(Nc3ccccc3)cc2=NC12CCCCC2"
  Endpoint value: "1.46 µM (active)"
- Compound: "Oc1c(C(Nc2cccc(C(F)(F)F)c2)c2ccncc2)ccc2cccnc12 (centres undefined)"
  Endpoint value: "3.42 µM (active)"
